Provenance of the data: patent US20220056104A1

Target: T1, Recombinant DR3-Fc (R&D Systems, cat. #943-D3) (UniProt Q93038 25-199, limits assumed)
T1 construct: dimeric MW~92 kDa; also called DR3 receptor; Fc-DR3; not shown: Fc part of the bought fusion
T1 sequence (looked up): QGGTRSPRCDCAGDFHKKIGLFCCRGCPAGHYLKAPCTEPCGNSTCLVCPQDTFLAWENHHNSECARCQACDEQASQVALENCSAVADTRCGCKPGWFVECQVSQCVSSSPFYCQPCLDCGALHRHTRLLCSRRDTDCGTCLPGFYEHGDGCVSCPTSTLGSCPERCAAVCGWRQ
Assay: ELISA, DR3-Fc immobilized

# BINDER, Rel EC50
rows = [
    ("TL1W116 (His-TEV-TL1A T192K) (ligand, also called TL1W116 (T192K)) HHHHHHENLYFQGLKGQEFAPSHQQVYAPLRADGDKPRAHLTVVRQTPTQHFKNQFPALHWEHELGLAFTKNRMNYTNKFLLIPESGDYFIYSQVTFRGMTSECSEIRQAGRPNKPDSITVVITKVTDSYPEPKQLLMGTKSVCEVGSNWFQPIYLGAMFSLQEGDKLMVNVSDISLVDYTKEDKTFFGAFLL", "2.9 ratio (head: nM)"),
    ("TL1W117 (His-TEV-TL1A T192E) (ligand, also called TL1W117 (T192E)) HHHHHHENLYFQGLKGQEFAPSHQQVYAPLRADGDKPRAHLTVVRQTPTQHFKNQFPALHWEHELGLAFTKNRMNYTNKFLLIPESGDYFIYSQVTFRGMTSECSEIRQAGRPNKPDSITVVITKVTDSYPEPEQLLMGTKSVCEVGSNWFQPIYLGAMFSLQEGDKLMVNVSDISLVDYTKEDKTFFGAFLL", "4.3 ratio (head: nM)"),
    ("TL1W79 (His-TEV-TL1A R103E) (ligand, also called TL1W79 (R103E)) HHHHHHENLYFQGLKGQEFAPSHQQVYAPLRADGDKPRAHLTVVEQTPTQHFKNQFPALHWEHELGLAFTKNRMNYTNKFLLIPESGDYFIYSQVTFRGMTSECSEIRQAGRPNKPDSITVVITKVTDSYPEPTQLLMGTKSVCEVGSNWFQPIYLGAMFSLQEGDKLMVNVSDISLVDYTKEDKTFFGAFLL", "7.8 ratio (head: nM)"),
    ("TL1W93 (His-TEV-TL1A M158K) (ligand, also called TL1W93 (M158K)) HHHHHHENLYFQGLKGQEFAPSHQQVYAPLRADGDKPRAHLTVVRQTPTQHFKNQFPALHWEHELGLAFTKNRMNYTNKFLLIPESGDYFIYSQVTFRGKTSECSEIRQAGRPNKPDSITVVITKVTDSYPEPTQLLMGTKSVCEVGSNWFQPIYLGAMFSLQEGDKLMVNVSDISLVDYTKEDKTFFGAFLL", "0.9 ratio (head: nM)"),
    ("TL1W112 (His-TEV-TL1A P189F) (ligand, also called TL1W112 (P189F)) HHHHHHENLYFQGLKGQEFAPSHQQVYAPLRADGDKPRAHLTVVRQTPTQHFKNQFPALHWEHELGLAFTKNRMNYTNKFLLIPESGDYFIYSQVTFRGMTSECSEIRQAGRPNKPDSITVVITKVTDSYFEPTQLLMGTKSVCEVGSNWFQPIYLGAMFSLQEGDKLMVNVSDISLVDYTKEDKTFFGAFLL", "7.7 ratio (head: nM)"),
    ("TL1W96 (His-TEV-TL1A R170E) (ligand, also called TL1W96 (R170E)) HHHHHHENLYFQGLKGQEFAPSHQQVYAPLRADGDKPRAHLTVVRQTPTQHFKNQFPALHWEHELGLAFTKNRMNYTNKFLLIPESGDYFIYSQVTFRGMTSECSEIRQAGEPNKPDSITVVITKVTDSYPEPTQLLMGTKSVCEVGSNWFQPIYLGAMFSLQEGDKLMVNVSDISLVDYTKEDKTFFGAFLL", "3.3 ratio (head: nM)"),
]
